The reported numbers originate from paper PMC10608985.

test: HPLC lipophilicity on cholesterol (Chol) stationary phase; format: physicochemical; conditions: slope of Soczewiński–Wachtmeister equation; MeOH/20 mM acetate buffer, pH 7.4
Readings of -S Chol for the listed compounds
Output: the number by itself.

>>> value("O=C(COc1ccccc1)NNC(=S)Nc1cccc(Cl)c1 [Compound 6]")
4.8849

**Query** Specify -S Chol for O=C(COc1ccccc1)NNC(=S)Nc1ccc([N+](=O)[O-])cc1 [Compound 16] and stop.
**Result** 5.2122

---

tested on: α1-acid glycoprotein (AGP); assay: HPLC on immobilized AGP column, affinity and % plasma–protein binding; assay type: in vitro ADME, human; settings: retention on AGP column; 50 mM ammonium acetate pH 7.4 / propan-2-ol 85/15 (v/v)
Readings of log k AGP for the listed compounds
Output: the number by itself.

Worked cases, answers included:
>>> value("O=C(COc1ccccc1)NNC(=S)Nc1ccc([N+](=O)[O-])cc1 [Compound 16]")
0.1994
>>> value("O=C(COc1ccccc1)NNC(=S)Nc1cccc(Cl)c1 [Compound 6]")
0.4964
>>> value("O=C(COc1ccccc1)NNC(=S)Nc1ccccc1Cl [Compound 3]")
0.4257

Now for the compound whose log k AGP we want.
**Query** Specify log k AGP for O=C(COc1ccccc1)NNC(=S)Nc1cccc(F)c1 [Compound 5] and stop.
**Result** 0.4328

---

Readings of log kw IAM for the listed compounds
assay: HPLC lipophilicity on IAM (immobilized artificial membrane, phosphatidylcholine) stationary phase; assay type: physicochemical; conditions: intercept, linear extrapolation to water; ACN/20 mM phosphate buffer, pH 7.4

Worked cases, answers included:
>>> value("O=C(COc1ccccc1)NNC(=S)Nc1ccc(I)cc1")
2.3341
>>> value("O=C(COc1ccccc1)NNC(=S)Nc1ccc(Cl)cc1")
1.8779

Now for the compound whose log kw IAM we want.
**Query** Specify log kw IAM for O=C(COc1ccccc1)NNC(=S)Nc1cccc2ccccc12 and stop.
**Result** 1.6606

---

Readings of log k HSA for the listed molecules
target: human serum albumin (HSA) (Homo sapiens, UniProt P02768); construct: purchased Chiralpac; test: HPLC on immobilized HSA column, affinity and % plasma–protein binding; format: in vitro ADME; details: retention on HSA column; 50 mM ammonium acetate pH 7.4 / propan-2-ol 85/15 (v/v)
Sequence (P02768 25-609): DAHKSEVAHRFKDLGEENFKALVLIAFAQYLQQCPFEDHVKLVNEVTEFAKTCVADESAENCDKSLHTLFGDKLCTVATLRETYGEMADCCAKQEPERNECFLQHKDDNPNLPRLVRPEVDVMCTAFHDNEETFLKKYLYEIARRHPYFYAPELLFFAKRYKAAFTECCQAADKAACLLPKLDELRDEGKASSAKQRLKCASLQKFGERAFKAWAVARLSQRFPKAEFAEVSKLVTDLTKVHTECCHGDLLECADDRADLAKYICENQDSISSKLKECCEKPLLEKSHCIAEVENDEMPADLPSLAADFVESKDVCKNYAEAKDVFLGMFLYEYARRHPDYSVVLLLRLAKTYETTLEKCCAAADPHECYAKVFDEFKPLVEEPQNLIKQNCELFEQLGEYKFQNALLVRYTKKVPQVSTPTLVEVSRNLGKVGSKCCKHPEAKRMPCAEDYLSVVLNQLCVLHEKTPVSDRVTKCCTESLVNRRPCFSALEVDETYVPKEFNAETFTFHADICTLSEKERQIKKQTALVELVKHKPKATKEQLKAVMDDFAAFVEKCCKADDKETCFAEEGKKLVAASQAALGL

**Query** Specify log k HSA for O=C(COc1ccccc1)NNC(=S)Nc1ccc(F)cc1 [Compound 9] and stop.
**Result** 0.9823

**Query** Specify log k HSA for O=C(COc1ccccc1)NNC(=S)Nc1cccc2ccccc12 [Compound 18] and stop.
**Result** 1.2098

**Query** Specify log k HSA for O=C(COc1ccccc1)NNC(=S)Nc1cccc(Cl)c1 [Compound 6] and stop.
**Result** 1.0170

---

assay: HPLC lipophilicity on cholesterol (Chol) stationary phase; assay type: physicochemical; settings: slope of Soczewiński–Wachtmeister equation; MeOH/20 mM acetate buffer, pH 7.4
Labelling: -S Chol reported below 5 becomes 1; at or above becomes 0.

Field: example entries. Status: answers known.
>>> qualitative_label("O=C(COc1ccccc1)NNC(=S)Nc1ccc(Cl)cc1")
1
>>> qualitative_label("O=C(COc1ccccc1)NNC(=S)Nc1ccccc1I")
1
>>> qualitative_label("O=C(COc1ccccc1)NNC(=S)Nc1ccc(F)cc1")
1

Proceed to the following item.
**Query** Quick check: -S Chol of O=C(COc1ccccc1)NNC(=S)Nc1cccc(Br)c1 under 5?
**Result** 0
